Measurement target: Thyroperoxidase (TPO) (Rattus norvegicus, UniProt P14650)
Sequence (P14650 32-914): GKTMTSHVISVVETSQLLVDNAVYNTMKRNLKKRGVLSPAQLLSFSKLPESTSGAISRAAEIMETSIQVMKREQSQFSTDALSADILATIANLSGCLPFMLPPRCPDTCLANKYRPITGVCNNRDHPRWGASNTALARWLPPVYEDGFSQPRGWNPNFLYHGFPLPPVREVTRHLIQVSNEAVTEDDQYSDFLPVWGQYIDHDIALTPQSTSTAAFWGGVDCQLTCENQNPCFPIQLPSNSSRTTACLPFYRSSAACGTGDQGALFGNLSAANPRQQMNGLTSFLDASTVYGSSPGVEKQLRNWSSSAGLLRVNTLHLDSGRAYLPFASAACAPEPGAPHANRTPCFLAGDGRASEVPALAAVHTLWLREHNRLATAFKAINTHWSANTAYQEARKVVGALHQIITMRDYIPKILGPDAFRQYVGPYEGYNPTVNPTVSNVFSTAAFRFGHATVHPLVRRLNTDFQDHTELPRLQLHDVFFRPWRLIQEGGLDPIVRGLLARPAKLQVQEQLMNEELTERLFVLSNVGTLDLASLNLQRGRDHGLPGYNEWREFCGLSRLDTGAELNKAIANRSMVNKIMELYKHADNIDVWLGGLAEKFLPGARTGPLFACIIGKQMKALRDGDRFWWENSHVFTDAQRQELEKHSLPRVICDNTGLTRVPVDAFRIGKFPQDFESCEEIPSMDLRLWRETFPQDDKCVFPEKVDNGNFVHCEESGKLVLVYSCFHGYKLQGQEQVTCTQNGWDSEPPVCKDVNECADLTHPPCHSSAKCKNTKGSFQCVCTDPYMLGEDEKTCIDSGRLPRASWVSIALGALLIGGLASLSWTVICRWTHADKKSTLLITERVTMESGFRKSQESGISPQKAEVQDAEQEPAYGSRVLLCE
Type: biochemical
Assay setup: Actual pIC50, in vitro value repeated in Table 2 for comparison with the models
Reported endpoint: IC50 (nM)

Solved entries:
| Compound | Units | IC50 |
| --- | --- | --- |
| O=C(O)c1cc(O)c(O)c(O)c1 [Gallic acid hydrate] | nM | 813 |
| NC(=S)Nc1ccccc1 | nM | 2750 |
| O=c1c(O)c(-c2ccc(O)cc2)oc2cc(O)cc(O)c12 | nM | 5010 |
| Oc1ccc(/C=C/c2cc(O)cc(O)c2)cc1 | nM | 724 |
| Oc1ccc(OCc2ccccc2)cc1 | nM | 8910 |

A: COc1cc(/C=C/C(=O)CC(=O)/C=C/c2ccc(O)c(OC)c2)ccc1O
B: CC[C@H](c1ccc(O)cc1)[C@@H](CC)c1ccc(O)cc1
Which has the higher IC50, A or B ? Your answer should be the label attached to the chosen record.
B
(B: 7940 nM, A: 1820 nM)

Attribution: paper PMC11040118
